Exercise: state measured Pseudovirus Neturalization for each of the binders provided.
Target: SARS-CoV-2 "Delta-plus" B.1.617.2.1 full-length Spike protein on pseudovirus (SARS-CoV-2, UniProt P0DTC2 14-1273)
Test: cell-based or functional assay

Could you report Pseudovirus Neturalization for every entry in the following list?
1. AB-009769 (antibody, V domains shown) VH: EVQLVESGGGLVQPGGSLRLSCAASGFTFSSYWMSWVRQAPGKGLEWVANIKQDGSEKYYVDSVKGRFTISRDNAKNSLYLQMNSLRAEDTAVYYCARSPEVLWFGDPVLDNWFDPWGQGTLVTVSS VL: SYELTQPPSVSVSPGQTARITCSGDALPKQYAYWYQQKPGQAPVLVIYKDSERPSGIPERFSGSSSGTTVTLTISGVQAEDEADYYCQSADSSGTYPVVFGGGTKLTVL
2. AB-009281 (antibody, V domains shown) VH: EVQLVETGGGLIQPGGSLRLSCAASGFTVSSNYMSWVRQAPGKGLEWVSVIYSGGSTYYADSVKGRFTISRDNSKNTLYLQMNSLRAEDTAVYYCARDLYYYGMDVWGQGTTVTVSS VL: DIQLTQSPSFLSASVGDRVTITCRASQGISSYLAWYQQKPGKAPKLLIYAASTLQSGVPSRFSGSGSGTEFTLTISSLQPEDFATYYCQQLNSYPTFGQGTKVEIK

> 50 µg/mL
2.29 µg/mL

Sample AB-009620 (antibody, V domains shown) VH: QITLKESGPTLVKPTQTLTLTCTFSGFSLSTSGVGVGWIRQPPGKALEWLALIYWDDDKRYSPSLKSRLTITKDTSKNQVVLTMTNMDPVDTATYYCAHHEVATVFDYWGQGTLVTVSS VL: QSALTQPASVSGSPGQSITISCTGTSSDVGAYNYVSWYQQHPGKAPKLMIYEVSNRPSGVSNRFSGSKSGNTASLTISGLQAEDEADYYCSSYTSSSTVFGGGTKLTVL — what was its Pseudovirus Neturalization?
0.809 µg/mL
